- Measured target: T1, O7
- T1 chain: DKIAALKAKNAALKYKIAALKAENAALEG
- Protocol summary: two-hybrid library CCNG1;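 further: natural log of median RNA to DNA barcode read ratio; higher means stronger binding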
Property: interaction score

(1) DEIAALEAKIAALKYENAALEAENAALEG [O3]
(2) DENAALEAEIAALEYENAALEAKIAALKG [O14]
Ask | Looking at 1 and 2 , which one comes out lower in interaction score terms? Return value: the label identifying the chosen record.
Reply | 1

(1) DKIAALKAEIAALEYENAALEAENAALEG [O11]
(2) DKIAALKAKNAALKYKIAALKAENAALEG [O7]
(3) DEIAALEAENAALEYKIAALKAENAALEG [O15]
Ask | # ascending order, key=interaction score I'd appreciate it if you listed the labels in the requested order.
Reply | 2, 1, 3
